# Assay type: in vivo, women
# CONDITIONS_USED: female, human, plasma, oral
ASSAY_ENDPOINT: AUC(0-t) (ng·h/mL)

1. C[C@H](Cn1cnc2c(N)ncnc21)OCP(=O)(O)O    1840

* * *

# Format: in vivo, women
# CONDITIONS_USED: female, human, plasma, po
ASSAY_ENDPOINT: AUC(0-t) (ng·h/mL)

1) C[C@H](Cn1cnc2c(N)ncnc21)OCP(=O)(O)O    2350

* * *

# Type: in vivo, women
# CONDITIONS_USED: female, human, plasma, oral, AUC0–24h Postpartum GM (95%CI), women with HIV, all patients (n = 59), postpartum
ASSAY_ENDPOINT: AUC(0-t)

1. C[C@H](Cn1cnc2c(N)ncnc21)OCP(=O)(O)O [TFV, tenofovir]    2840 ng·h/mL

* * *

# Assay type: in vivo, women
# CONDITIONS_USED: female, human, plasma, po
ASSAY_ENDPOINT: AUC(0-t)

1) C[C@H](Cn1cnc2c(N)ncnc21)OCP(=O)(O)O    1860 ng·h/mL
